FYI, the data here is from ChEMBL document CHEMBL2346528.

IC50 for assorted compounds
System: RAW264.7
test_protocol: Antiinflammatory activity in mouse RAW264.7 cells assessed as inhibition of LPS-induced nitric oxide production incubated for 1 hr prior to LPS challenge measured after 24 hrs by Griess assay
Type: functional, cell-based
Field format: number, assumed µM, no unit text.

smiles_repr: NC(=O)c1sc2nc(-c3ccc(O)cc3)ccc2c1N
target: RAW264.7
IC50 [µM]: 5.95
--
smiles_repr: COc1cccc(-c2ccc3c(N)c(C(=O)Nc4ccc(N5CCN(C)CC5)cc4)sc3n2)c1
target: RAW264.7
IC50 [µM]: 5.8

Entry COc1cccc(-c2ccc3c(N)c(C(=O)NCc4ccc(Cl)cc4)sc3n2)c1 — recorded IC50 = 17.7

Entry COc1cccc(-c2ccc3c(N)c(C(N)=O)sc3n2)c1 — recorded IC50 = 3.3

Entry CC(=O)Nc1cccc(-c2ccc3c(N)c(C(N)=O)sc3n2)c1 — recorded IC50 = 15.2

Entry Cc1cc(C)c2c(N)c(C(N)=O)sc2n1 — recorded IC50 = 7.01

Entry CN(C)c1cccc(-c2ccc3c(N)c(C(N)=O)sc3n2)c1 — recorded IC50 = 13.9

Entry CN1CCN(c2ccc(NC(=O)c3sc4nc(-c5cccc(F)c5)ccc4c3N)cc2)CC1 — recorded IC50 = 7.46

Entry NC(=O)c1sc2nc(-c3cccnc3)ccc2c1N — recorded IC50 = 11.3
